test system: MS2 coat protein; test: apparent KD of MS2 coat protein; designed switch direction (-1 OFF switch, 1 ON switch): 1; higher = weaker reporter binding; details: input ligand: microRNA oligo, concentration not stated
Binary call on apparent KD of MS2 coat protein: rule met from 100 nM upward, rule not met beneath that.

- biopolymer.sequence: "GCGAGCGUACUUGCUACAUGAGGAUCACCCAUGUUUUAUGGACAGGAUAUGGUACCGUUUCGGUACCAGAAGGGUUCACAUGUG [JL SSNG3 3.82] (Eterna round: R96, puzzle: Same State NG 3)"
  classification: "rule met"
- biopolymer.sequence: "GAAUAGUUGAGAGGAUAUGGAUUAUUGUAGGAUCCAGAAGGUUUUAACAUGAGGAUCACCCAUGUAGGACUAUAUAUGUGAAUA [Parity 97 - Jieux - Same State NG 1] (Eterna round: R96, puzzle: Same State NG 1)"
  classification: "rule not met"
- biopolymer.sequence: "UUAAUGAAGUAAGGAUAUACAUGAGGAUCACUCGUAGAAGGUACUAAACAUGAGGAUCACCCAUGUACCGGUCCGUAGACUGGA [JL SSNG1 1.01] (Eterna round: R96, puzzle: Same State NG 1)"
  classification: "rule met"
- biopolymer.sequence: "UCACCUAUCGACAUGAGGAUCACCCAUGUGGAUUGAGCUUCCAAGGAUAUCGGCGCACAACCCAUCGAGAAGGUGGAAAGAUAC [Eternabot solution 32] (Eterna round: R96, puzzle: Same State NG 3)"
  classification: "rule not met"
- biopolymer.sequence: "GCUUGCCGCACAGGAUAUGGGUGCCUGUACAUGAGGAUCACCCAUGUUAAGGGACGGAUUACGAACCAGAAGGGUGAGGCGGGC [Lereatle] (Eterna round: R96, puzzle: Same State NG 2)"
  classification: "rule met"
- biopolymer.sequence: "GGUACAGUUACAGGAUAUGCUAUCCUUUGGGUAGCAGAAGGGUGGUAACAUGAGGAUCACCCAUGUGUGCCAGGGCGUGAGCCC [JL SSNG1 1.99] (Eterna round: R96, puzzle: Same State NG 1)"
  classification: "rule met"
- biopolymer.sequence: "AUUGCUUACGCAGGAUAUGAUGCGAAAAUUGCGUCAGAAGGGUGAAGUAACUCAUUGCAACAGGACAUGAGGAUCACCCAUGUC [SameState NG1 #89] (Eterna round: R96, puzzle: Same State NG 1)"
  classification: "rule met"
- biopolymer.sequence: "AGCUAUUAAUCAGGAUAUGGUCACAUGAGGAUCACCCAUGUAUAGAUGAUUGAAUGUGGUCUACACUAGAAGGGAUUGCUAACA [SameState NG2 #58] (Eterna round: R96, puzzle: Same State NG 2)"
  classification: "rule not met"
- biopolymer.sequence: "GUUUGAUGGUGAGGAUAUGUACAAAGAUAGGGUAUAGAAGGCAUGCGCCGGGAAACCGCGGUACAUGAGGAUCACCCAUGUGUC [Eternabot solution 36] (Eterna round: R96, puzzle: Same State NG 1)"
  classification: "rule not met"
- biopolymer.sequence: "GCCAUCGAGUGAGGAUAUGGCACCGUUUCGGUGCCAGAAGGCAUGUCAAUUGACAUGAGGAUCACCCAUGUAUUAUCGAUGGCA [JL Fiskers NG1ss - 33 mod 4] (Eterna round: R96, puzzle: Same State NG 1)"
  classification: "rule met"
- biopolymer.sequence: "UUUCUUCUCGUAGGAUAUGUAGGAUAUGCCUACAUGAGGAUCACCCAUGUUCGCAUGGCAGAAGGACAGAAGGACGAUCACCCU [pwkr ssNG2 2FMN + 1F5.9] (Eterna round: R96, puzzle: Same State NG 2)"
  classification: "rule met"
- biopolymer.sequence: "GGGAGAGACGUAGGAUAUGGAAGAAGAUAGAGACUAGAAGGGUGAACAUGAGAAUCGAAGUGUAAAGUGAGAUGAGGUGGGAGA [iteri-1] (Eterna round: R96, puzzle: Same State NG 1)"
  classification: "rule not met"
- biopolymer.sequence: "AACCCAGUGGAAGGAUAUGGCACCUUAUUGGUGCCAGAAGGUCCUAACAUGAGGAUCACCCAUGUGGGCCGGUCGAAAGACCGG [Fiskers NG1ss - 10] (Eterna round: R96, puzzle: Same State NG 1)"
  classification: "rule met"
- biopolymer.sequence: "AGGCUCAGACGAGGAUAUAUGUGGUCACAUGAGGAUCACCCAUGUCUCGAGCUUCGGCUCGAGGCAUAGAAGGCGUCUGAGCCA [SSNG2/5-A1] (Eterna round: R96, puzzle: Same State NG 2)"
  classification: "rule not met"
- biopolymer.sequence: "AGUCCAGCCUGAGCUGGACUGAAGCAUGUACAUGAGGAUCACCCAUGUUCAUGUACAGGCUUUUUGCUCGUCUUAUG [JL-shm-2.02 JL mod] (Eterna round: R96, puzzle: Sensor for hsa-mir-208a)"
  classification: "rule not met"
- biopolymer.sequence: "ACGUGGCUGCCGCAGGAUAUACCCUGUUCCACAUGAGGAUCACCCAUGUUUACGAACUAUGAGAGGUAGAAGGGUGGAUGUCAUU [Beenvean] (Eterna round: R96, puzzle: Same State 2)"
  classification: "rule not met"
